# assayOverview: luciferase reporter signal suppression in cells – H4 neuroglioma cells, luminescence, dose response (AID 1990)
# Format: functional, cell-based
Calls of active or inactive are those of the source.
propertyName: EC50

compound=NC1=C(Br)C(=O)c2ccccc2C1=O propertyname=EC50 readoutvalue="> 60 µM (not active)"
compound="Cc1oc(-c2ccc(Cl)cc2)nc1CN1CCCC(C(=O)NCc2ccco2)C1 (stereo not given)" propertyname=EC50 readoutvalue="> 120 µM (not active)"
compound=Cc1nc(Nc2nc(O)c3c(n2)CCC3)nc2ccccc12 propertyname=EC50 readoutvalue="> 120 µM (not active)"
compound=c1ccc2c(c1)CSc1ccccc1N2 propertyname=EC50 readoutvalue="> 120 µM (not active)"
compound=CCOC(=O)c1cc2c(=O)n3ccccc3nc2n(CC(C)C)/c1=N/C(=O)c1c(-c2c(F)cccc2Cl)noc1C propertyname=EC50 readoutvalue="14.1 µM (active)"

----------
# Lookup of reported IC50 keyed by entry
# target: Estrogen receptor beta (Homo sapiens, UniProt Q92731)
# Sequence (Q92731 whole entry): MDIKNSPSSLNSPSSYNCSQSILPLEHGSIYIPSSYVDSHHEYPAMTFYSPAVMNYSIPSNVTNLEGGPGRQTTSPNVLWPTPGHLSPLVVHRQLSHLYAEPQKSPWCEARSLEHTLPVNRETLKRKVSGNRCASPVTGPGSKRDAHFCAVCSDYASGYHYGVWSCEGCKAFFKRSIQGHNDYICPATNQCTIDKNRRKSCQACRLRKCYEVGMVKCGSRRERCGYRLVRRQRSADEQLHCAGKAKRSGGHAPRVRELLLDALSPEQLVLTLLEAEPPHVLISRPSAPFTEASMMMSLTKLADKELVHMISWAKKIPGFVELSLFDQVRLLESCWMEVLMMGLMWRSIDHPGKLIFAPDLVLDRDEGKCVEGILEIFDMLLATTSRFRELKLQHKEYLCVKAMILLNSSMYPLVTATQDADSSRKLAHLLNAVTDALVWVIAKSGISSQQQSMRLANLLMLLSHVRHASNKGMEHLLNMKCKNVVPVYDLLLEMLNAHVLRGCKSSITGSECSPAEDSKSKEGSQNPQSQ
# assayOverview: blockers of SRC-3 recruitment to ERβ – biochemical, ELISA, streptavidin-HRP readout, orthogonal assay, confirmation (AID 1060)
propertyName: IC50

molecule=O=C(NC1CCCC1)c1ccc2nc(-c3ccco3)c(-c3ccco3)nc2c1 propertyname=IC50 readoutvalue="0.478 µM (not active)"
molecule="O=S(=O)(NCC(O)COCc1ccco1)c1cccs1 (stereo not given)" propertyname=IC50 readoutvalue="14 µM (not active)"
molecule=O=C(CSc1nnc(SCC(=O)c2ccco2)s1)c1ccco1 propertyname=IC50 readoutvalue="> 109 µM (not active)"
molecule=Nc1nc(-c2ccco2)c(-c2ccco2)s1 propertyname=IC50 readoutvalue="101 µM (not active)"
molecule=CCOC(=O)Cc1cc(O)n2nc(-c3ccc(C)cc3)cc2n1 propertyname=IC50 readoutvalue="46.7 µM (not active)"

----------
# Lookup of reported AC50 keyed by entry
# target: Cytochrome P450 3A4 (Homo sapiens, UniProt P08684);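 note: confirmatory qHTS run detecting inhibitors and substrates of CYP3A4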
# Sequence (P08684 whole entry): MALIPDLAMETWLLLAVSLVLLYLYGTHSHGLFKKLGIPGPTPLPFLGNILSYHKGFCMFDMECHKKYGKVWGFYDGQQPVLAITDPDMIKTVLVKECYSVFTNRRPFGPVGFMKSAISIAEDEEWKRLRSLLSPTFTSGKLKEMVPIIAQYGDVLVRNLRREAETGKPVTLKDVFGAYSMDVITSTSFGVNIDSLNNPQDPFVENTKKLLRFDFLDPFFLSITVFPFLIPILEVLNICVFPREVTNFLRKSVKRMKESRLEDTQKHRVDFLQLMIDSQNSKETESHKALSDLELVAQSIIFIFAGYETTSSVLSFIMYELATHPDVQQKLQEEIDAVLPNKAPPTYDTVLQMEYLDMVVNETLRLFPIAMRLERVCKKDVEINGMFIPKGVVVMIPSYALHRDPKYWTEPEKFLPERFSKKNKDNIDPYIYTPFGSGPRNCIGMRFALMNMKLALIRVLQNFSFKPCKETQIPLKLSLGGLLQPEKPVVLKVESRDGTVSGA
# testParameters: Potency
propertyName: AC50

molecule="COc1ccc(C2Oc3cc(OC)cc(OC)c3CC2O)cc1 (stereo not given)" propertyname=AC50 readoutvalue="20 µM (inconclusive)"
molecule=CN(C)c1ccc(Cc2ccc(N(C)C)cc2)cc1 propertyname=AC50 readoutvalue="12.6 µM (inconclusive)"
molecule="O=C1CC(c2ccccc2O)Oc2ccc(O)cc21 (stereo not given)" propertyname=AC50 readoutvalue="25.1 µM (inconclusive)"
molecule=COCCN(CCOC)c1nc(C)nc2c1nc(-c1ccccc1)n2CC1CCN(C)CC1 propertyname=AC50 readoutvalue="15.8 µM (inconclusive)"
molecule=CCCCNc1nc(C)nc2c1nc(-c1ccccc1)n2CCCN(C)C propertyname=AC50 readoutvalue="15.8 µM (inconclusive)"

----------
# target: Large T antigen (Simian virus 40);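 note: Confirmatory-stage PubChem screen for compounds that inhibit SV40 T antigen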
# Sequence (P03070 whole entry): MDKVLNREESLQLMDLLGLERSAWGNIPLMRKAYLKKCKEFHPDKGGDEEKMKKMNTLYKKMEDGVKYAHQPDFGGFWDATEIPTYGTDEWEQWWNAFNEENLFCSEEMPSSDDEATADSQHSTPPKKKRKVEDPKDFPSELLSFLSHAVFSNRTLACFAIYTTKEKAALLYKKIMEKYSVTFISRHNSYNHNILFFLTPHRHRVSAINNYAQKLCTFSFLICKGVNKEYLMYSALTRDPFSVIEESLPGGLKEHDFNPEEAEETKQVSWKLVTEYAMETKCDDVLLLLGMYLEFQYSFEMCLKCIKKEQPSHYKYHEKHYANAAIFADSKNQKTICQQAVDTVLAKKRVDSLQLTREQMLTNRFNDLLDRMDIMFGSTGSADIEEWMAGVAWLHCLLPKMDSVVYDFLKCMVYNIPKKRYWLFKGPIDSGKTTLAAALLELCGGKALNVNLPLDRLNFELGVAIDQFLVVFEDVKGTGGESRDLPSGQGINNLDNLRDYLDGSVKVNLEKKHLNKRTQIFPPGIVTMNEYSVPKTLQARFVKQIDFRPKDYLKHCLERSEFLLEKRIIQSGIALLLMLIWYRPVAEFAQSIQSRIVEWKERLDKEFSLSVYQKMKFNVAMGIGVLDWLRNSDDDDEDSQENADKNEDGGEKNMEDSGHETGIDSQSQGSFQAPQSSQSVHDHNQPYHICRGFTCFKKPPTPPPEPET
# Format: functional, Betapolyomavirus macacae
Active and inactive are the calls of the source.
propertyName: IC50

molecule=COc1cc(/C=N/n2nnnc2N)ccc1O propertyname=IC50 readoutvalue="4.83 µM (active)"
molecule=C/N=c1/nc(-c2ccccc2)n(-c2ccccc2)s1 propertyname=IC50 readoutvalue="29.4 µM (active)"
molecule=C/C(=N/NC(=O)Cc1c(C)n[nH]c1O)c1ccc(O)cc1 propertyname=IC50 readoutvalue="31.4 µM (active)"
molecule=N=C1/C(=C/c2ccc(O)c(O)c2)C(=O)N=C2SC(CC(=O)N3CCCC3)=NN12 propertyname=IC50 readoutvalue="7.22 µM (active)"
molecule=COc1ccc(/N=C/c2c(O)cc(C)oc2=O)cc1 propertyname=IC50 readoutvalue="7.84 µM (active)"
molecule="CCc1ccc(C2CC(=O)N3CN(c4ccccc4)CSC3=C2C#N)cc1 (centres undefined)" propertyname=IC50 readoutvalue="70.1 µM (active)"
molecule=COc1cccc(N2C(=O)NC(=O)/C(=C/c3ccc([N+](=O)[O-])s3)C2=O)c1 propertyname=IC50 readoutvalue="47.3 µM (active)"
molecule="O=C(c1ccco1)N1CCCC(Nc2ccc3c(c2)OCCO3)C1 (centres undefined)" propertyname=IC50 readoutvalue="29.3 µM (active)"
molecule=COc1cccc(-n2c(/C=C/c3ccc(O)c(O)c3)nc3ccccc3c2=O)c1 propertyname=IC50 readoutvalue="> 100 µM (active)"

----------
Each entry below carries its measured AC50, system: Cytochrome P450 2D6 (Homo sapiens, UniProt P10635).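 Note: CYP2D6 member of a cytochrome P450 panel assay.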
Sequence (P10635 whole entry): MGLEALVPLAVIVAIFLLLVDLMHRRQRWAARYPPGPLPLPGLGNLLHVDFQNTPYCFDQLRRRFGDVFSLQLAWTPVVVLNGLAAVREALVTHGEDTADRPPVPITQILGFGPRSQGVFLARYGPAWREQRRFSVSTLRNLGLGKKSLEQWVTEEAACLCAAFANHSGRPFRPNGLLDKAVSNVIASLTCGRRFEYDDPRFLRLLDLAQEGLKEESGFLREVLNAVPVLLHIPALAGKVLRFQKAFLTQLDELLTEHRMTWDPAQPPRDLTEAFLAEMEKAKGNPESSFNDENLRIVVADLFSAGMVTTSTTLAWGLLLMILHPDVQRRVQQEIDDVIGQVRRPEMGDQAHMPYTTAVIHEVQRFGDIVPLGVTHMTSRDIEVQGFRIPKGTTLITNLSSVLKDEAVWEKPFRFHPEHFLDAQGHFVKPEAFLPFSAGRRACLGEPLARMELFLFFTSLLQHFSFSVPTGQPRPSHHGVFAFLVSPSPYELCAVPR
propertyName: AC50

molecule="COC(=O)C1Cc2c([nH]c3ccccc23)CN1 (stereo unspecified)" readoutvalue="14.1 µM (inconclusive)"
molecule=c1ccc(Nc2nc(-c3ccc4c(c3)OCO4)nc3ccccc23)cc1 readoutvalue="39.8 µM (inconclusive)"
molecule=CN(C)c1ncc2ncc(=O)n(Cc3cccs3)c2n1 readoutvalue="12.6 µM (inconclusive)"
molecule="CCC(C)NCc1ccc(C(=O)OC)o1 (stereo unspecified)" readoutvalue="14.1 µM (inconclusive)"
molecule=COc1ccc2c(c1)CCc1c(C(=O)N3CCCCCC3)noc1-2 readoutvalue="15.8 µM (inconclusive)"
molecule=CCc1c(C(=O)NCc2ccc3c(c2)OCO3)[nH]c(C)c1C(C)=O readoutvalue="20 µM (inconclusive)"

----------
# target: Protein RecA (Mycobacterium tuberculosis)
# assayOverview: Fluorescence Cell-Free Homogeneous Dose Retest to Identify Inhibitors of RecA-Intein Splicing Activity. [Related pubchem assays (depositor defined):AID2097, AID2223, AID489010, AID492950]
# Format: functional
Activity calls are given as the source filed them.
propertyName: EC50

compound=O=Cc1ccc(Sc2nnc(-c3ccccc3)o2)c([N+](=O)[O-])c1 target="Protein RecA (Mycobacterium tuberculosis)" propertyname=EC50 readoutvalue="5.46 µM (active)"
compound=CN1CCN(C2=C(Cl)C(=O)N(c3ccc(Cl)cc3)C2=O)CC1 target="Protein RecA (Mycobacterium tuberculosis)" propertyname=EC50 readoutvalue="0.247 µM (active)"
compound=CCCCCCCCCCOC(=O)Cn1c(COc2cccc(OC)c2)[n+](C)c2ccccc21 target="Protein RecA (Mycobacterium tuberculosis)" propertyname=EC50 readoutvalue="9.7 µM (active)"
compound=Cn1[nH]c(CSc2ccc(Cl)cc2)cc1=O target="Protein RecA (Mycobacterium tuberculosis)" propertyname=EC50 readoutvalue="10 µM (active)"
compound=FC(F)(F)c1cccc(Oc2nc(-c3ccccc3)nnc2C(F)(F)F)c1 target="Protein RecA (Mycobacterium tuberculosis)" propertyname=EC50 readoutvalue="0.76 µM (active)"
compound=NC1=C(Br)C(=O)c2ccccc2C1=O target="Protein RecA (Mycobacterium tuberculosis)" propertyname=EC50 readoutvalue="2.99 µM (active)"
compound="CCC1C(=O)N(c2nc(C)cc(C)n2)N=C1C (stereo unspecified)" target="Protein RecA (Mycobacterium tuberculosis)" propertyname=EC50 readoutvalue="3.3 µM (active)"
compound=Nc1nc(-c2ccco2)nn1C(=O)c1ccc(Cl)cc1 target="Protein RecA (Mycobacterium tuberculosis)" propertyname=EC50 readoutvalue="55.4 µM (active)"
compound=CCc1ccc(S(=O)(=O)/N=C2\C=C(Nc3cccc(C(=O)O)c3)C(=O)c3ccccc32)cc1 target="Protein RecA (Mycobacterium tuberculosis)" propertyname=EC50 readoutvalue="0.216 µM (active)"
compound=Cc1ccc(S(=O)(=O)Nc2ccc(O)c3ccccc23)c(C)c1 target="Protein RecA (Mycobacterium tuberculosis)" propertyname=EC50 readoutvalue="0.0702 µM (active)"
compound=CC1=NN(c2ccc(S(=O)(=O)O)cc2C)C(=O)C1 target="Protein RecA (Mycobacterium tuberculosis)" propertyname=EC50 readoutvalue="4.57 µM (active)"

----------
# target: Corticotropin-releasing factor receptor 2/Corticotropin-releasing factor-binding protein (Homo sapiens, UniProt P24387+Q13324)
# Sequence (Q13324 whole entry): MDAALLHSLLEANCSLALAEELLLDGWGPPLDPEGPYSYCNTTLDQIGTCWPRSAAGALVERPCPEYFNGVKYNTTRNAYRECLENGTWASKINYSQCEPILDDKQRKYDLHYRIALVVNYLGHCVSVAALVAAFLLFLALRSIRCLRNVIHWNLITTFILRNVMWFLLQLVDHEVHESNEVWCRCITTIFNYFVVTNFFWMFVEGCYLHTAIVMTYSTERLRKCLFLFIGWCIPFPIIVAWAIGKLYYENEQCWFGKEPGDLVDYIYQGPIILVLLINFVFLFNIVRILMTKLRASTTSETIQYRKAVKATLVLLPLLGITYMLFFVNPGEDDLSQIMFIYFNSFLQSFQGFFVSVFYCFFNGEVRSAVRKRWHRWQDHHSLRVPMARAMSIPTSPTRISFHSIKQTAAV
# Sequence (P24387 whole entry): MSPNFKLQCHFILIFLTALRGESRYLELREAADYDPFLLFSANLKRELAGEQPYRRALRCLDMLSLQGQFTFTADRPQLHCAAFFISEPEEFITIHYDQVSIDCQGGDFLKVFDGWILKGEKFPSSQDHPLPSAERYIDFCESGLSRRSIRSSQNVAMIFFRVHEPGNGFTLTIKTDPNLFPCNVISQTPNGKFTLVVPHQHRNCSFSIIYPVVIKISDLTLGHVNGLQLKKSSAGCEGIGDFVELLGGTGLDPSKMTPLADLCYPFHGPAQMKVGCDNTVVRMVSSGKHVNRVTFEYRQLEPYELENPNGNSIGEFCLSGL
# assayOverview: activators of CRF receptor 2 with binding protein – uHTS hits, confirmation (AID 602473)
# Type: functional
# testParameters: read-out: EC50_Mean
The source made the active and inactive calls.
Outcome codes: 1 (yes) for active, 0 (no) for inactive

molecule=CC(C)COc1ccc(CN=C(S)Nc2ccccc2)cc1Cl categorylabel="0 (no)"
molecule=CCN(CC(=O)Nc1c(F)cccc1F)C(=O)c1ccc(S(=O)(=O)N2CCC(C)CC2)cc1 categorylabel="0 (no)"
molecule=O=S(=O)(NC(=S)NC1CCCCC1)c1ccc(Br)cc1 categorylabel="0 (no)"
molecule="Cc1ccc(N(C(=O)Cn2nnc(-c3ccccc3F)n2)C(C(=O)NC2CCCC2)c2ccncc2)cc1 (stereo unspecified)" categorylabel="0 (no)"
molecule="CN(Cc1cccc(Cl)c1)C(=O)C1CCC(=O)N(C2CC2)C1 (stereo unspecified)" categorylabel="0 (no)"
molecule=CCN(CC)S(=O)(=O)c1ccc2c(c1)N(CC(=O)NCc1ccco1)C(=O)CO2 categorylabel="0 (no)"
molecule=Cc1ccc(C(=O)NCc2cccnc2)o1 categorylabel="0 (no)"
molecule="CC1(C)CC(=O)C2=C(C1)OC(N)=C(C#N)C2c1cc2c(cc1[N+](=O)[O-])OCO2 (stereo unspecified)" categorylabel="1 (yes)"
molecule=COc1ccc(C(=O)Nc2ccc3nc4n(c(=O)c3c2)CCCCC4)cc1OC categorylabel="0 (no)"
molecule="O=C1NC(=O)N(CCNc2ncc(C(F)(F)F)cc2Cl)C(=O)C1/C=N/OCc1c(F)cccc1Cl (stereo unspecified)" categorylabel="0 (no)"
molecule=Clc1ccc(-c2nnc(NCc3ccccc3)c3ccccc23)cc1 categorylabel="0 (no)"
molecule=O=C(CCN1CCCCC1)c1ccc2c(c1)OCO2 categorylabel="0 (no)"
molecule=Cc1cc(NC(=O)C(C)C)ncc1NC(=O)CCc1ccccc1 categorylabel="0 (no)"
molecule=CCOc1cc(C)ccc1OCc1nnc(SCC(=O)c2cccc([N+](=O)[O-])c2)n1C categorylabel="0 (no)"
molecule=O=C(Nc1ccc(Cl)cn1)c1cccc(S(=O)(=O)N2CCCC2)c1 categorylabel="0 (no)"
molecule=Cc1[nH]c2ccccc2c1/C=C1/C(=N)N2C(=NC1=O)SN=C2S(=O)(=O)CC(C)C categorylabel="0 (no)"
